Test system: Escherichia coli
procedure-summary: Antibacterial activity against Escherichia coli after 16 to 18 hrs by serial dilution method
Type: functional
observed-property: MIC (µg/mL)
# value in µg/mL; strip the unit string

Cc1ccc(-c2n[nH]cc2/C=N/n2c(-c3ccccc3)nn(CN3CCN(C)CC3)c2=S)cc1 :: 6

Qu. Indicate the recorded MIC value for this compound: CCCc1nn(CN2CCN(C)CC2)c(=S)n1/N=C/c1c[nH]nc1-c1ccccc1
Ans. 12.5

Qu. Return MIC for the following compound: CN1CCN(Cn2nc(-c3ccccc3)n(/N=C/c3c[nH]nc3-c3ccccc3)c2=S)CC1
Ans. 6

Qu. Tell me measured MIC for NC(=O)N/N=C/c1ccc([N+](=O)[O-])o1 please.
Ans. 6

Qu. In one line, give reported MIC of the entry CCCc1nn(CN2CCN(C)CC2)c(=S)n1/N=C/c1c[nH]nc1-c1ccc(C)cc1 .
Ans. 6

Qu. Give a short answer stating reported MIC for Cc1nn(CN2CCN(C)CC2)c(=S)n1/N=C/c1c[nH]nc1-c1ccccc1 .
Ans. 12.5

Qu. Provide measured MIC value, entry: COc1ccc(-c2n[nH]cc2/C=N/n2c(-c3ccccc3)nn(CN3CCN(C)CC3)c2=S)cc1
Ans. 6

Qu. Return the recorded MIC value; entry: Cc1ccc(-c2n[nH]cc2/C=N/n2c(C)nn(CN3CCN(C)CC3)c2=S)cc1
Ans. 6

Qu. For the compound CCCc1nn(CN2CCN(C)CC2)c(=S)n1/N=C/c1c[nH]nc1-c1ccc(OC)cc1 , give its measured MIC value.
Ans. 12.5

Qu. Report MIC for Cc1n[nH]cc1/C=N/n1c(-c2ccccc2)nn(CN2CCN(C)CC2)c1=S
Ans. 6

Qu. Identify the reported MIC for the following entry. Cc1n[nH]cc1/C=N/n1c(C)nn(CN2CCN(C)CC2)c1=S
Ans. 6

Qu. Return reported MIC. Input compound: CCCc1nn(CN2CCN(C)CC2)c(=S)n1/N=C/c1c[nH]nc1-c1ccc(Cl)cc1
Ans. 3

Qu. Give the value of MIC reported for the following: COc1ccc(-c2n[nH]cc2/C=N/n2c(C)nn(CN3CCN(C)CC3)c2=S)cc1
Ans. 6

----------
Tested on: Staphylococcus aureus
procedure-summary: Antibacterial activity against Staphylococcus aureus after 16 to 18 hrs by serial dilution method
Assay type: functional
observed-property: MIC (µg/mL)
Hi! Could you send only the number? It should be in µg/mL, unit omitted.

Known MIC results, listed for orientation:
CCCc1nn(CN2CCN(C)CC2)c(=S)n1/N=C/c1c[nH]nc1-c1ccccc1 :: 6
NC(=O)N/N=C/c1ccc([N+](=O)[O-])o1 [NITROFURAZONE] :: 12.5
Cc1nn(CN2CCN(C)CC2)c(=S)n1/N=C/c1c[nH]nc1-c1ccccc1 :: 6
CN1CCN(Cn2nc(-c3ccccc3)n(/N=C/c3c[nH]nc3-c3ccccc3)c2=S)CC1 :: 6
COc1ccc(-c2n[nH]cc2/C=N/n2c(-c3ccccc3)nn(CN3CCN(C)CC3)c2=S)cc1 :: 6

Now turn to the next molecule.
Qu. Let me know recorded MIC for CCCc1nn(CN2CCN(C)CC2)c(=S)n1/N=C/c1c[nH]nc1-c1ccc(Cl)cc1 , thanks.
Ans. 3

----------
Tested on: Staphylococcus aureus
procedure-summary: Antibacterial activity against Staphylococcus aureus after 16 to 18 hrs by serial dilution method
Type: functional
observed-property: MIC (µg/mL)
Give the quantity in µg/mL, number only.

# example entries with known answers
Cc1n[nH]cc1/C=N/n1c(C)nn(CN2CCN(C)CC2)c1=S :: 12.5
CCCc1nn(CN2CCN(C)CC2)c(=S)n1/N=C/c1c[nH]nc1-c1ccc(OC)cc1 :: 6
Cc1ccc(-c2n[nH]cc2/C=N/n2c(-c3ccccc3)nn(CN3CCN(C)CC3)c2=S)cc1 :: 6

Switching to the query record.
Qu. Please look at Cc1n[nH]cc1/C=N/n1c(-c2ccccc2)nn(CN2CCN(C)CC2)c1=S and tell me its recorded MIC on Staphylococcus aureus.
Ans. 12.5

----------
Tested on: Staphylococcus aureus
procedure-summary: Antibacterial activity against Staphylococcus aureus after 16 to 18 hrs by serial dilution method
Assay type: functional
observed-property: MIC (µg/mL)
I only need the number, in µg/mL, no unit after it.

// below: answered compounds
Cc1ccc(-c2n[nH]cc2/C=N/n2c(C)nn(CN3CCN(C)CC3)c2=S)cc1 :: 12.5
COc1ccc(-c2n[nH]cc2/C=N/n2c(C)nn(CN3CCN(C)CC3)c2=S)cc1 :: 6

# evaluate next
Qu. Return MIC (reported value) for this compound: CCCc1nn(CN2CCN(C)CC2)c(=S)n1/N=C/c1c[nH]nc1-c1ccc(C)cc1
Ans. 6
